Reported values of AST levels for individual entries
experiment: Liver function: plasma transaminases (ALT, AST) in C57BL/6 mice; format: in vivo, mouse; conditions: Week 0 (before treatment), 50 mg/kg/week
Oligonucleotides are written 5' to 3', each unit as a sugar letter and its base; * is a phosphorothioate linkage, no mark a phosphodiester; rarer units and linkages stand in square brackets, end groups in braces. Plain capitals give the bases only. e = 2'-O-(2-methoxyethyl) (MOE); [5mC] = 5-methylcytosine; d = 2'-deoxy (DNA)

seqString	AST levels
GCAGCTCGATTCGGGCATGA (antisense eG*e[5mC]*eA*eG*e[5mC]*dT*d[5mC]*dG*dA*dT*dT*d[5mC]*dG*dG*dG*e[5mC]*eA*eT*eG*eA) [ISIS 447118]	88 IU/L
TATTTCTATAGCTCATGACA (antisense eT*eA*eT*eT*eT*d[5mC]*dT*dA*dT*dA*dG*d[5mC]*dT*d[5mC]*dA*eT*eG*eA*e[5mC]*eA) [ISIS 447144]	67 IU/L
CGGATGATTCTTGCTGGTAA (antisense e[5mC]*eG*eG*eA*eT*dG*dA*dT*dT*d[5mC]*dT*dT*dG*d[5mC]*dT*eG*eG*eT*eA*eA) [ISIS 447114]	83 IU/L
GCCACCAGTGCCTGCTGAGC (antisense eG*e[5mC]*e[5mC]*eA*e[5mC]*d[5mC]*dA*dG*dT*dG*d[5mC]*d[5mC]*dT*dG*d[5mC]*eT*eG*eA*eG*e[5mC]) [ISIS 447143]	50 IU/L

====

tested on: murine TTC39B mRNA; test: Dose-dependent antisense inhibition of murine TTC39B in mouse primary hepatocytes (Example 2); type: cell-based; conditions: 50 nM, cytofectin, ~16 h
Oligonucleotides are written 5' to 3', each unit as a sugar letter and its base; * is a phosphorothioate linkage, no mark a phosphodiester; rarer units and linkages stand in square brackets, end groups in braces. Plain capitals give the bases only. e = 2'-O-(2-methoxyethyl) (MOE); [5mC] = 5-methylcytosine; d = 2'-deoxy (DNA)
Reported values of percent inhibition of TTC39B mRNA for individual entries

seqString	readoutUnits	percent inhibition of TTC39B mRNA
GCTCAGCTTGCAAGGGCCGC (antisense eG*e[5mC]*eT*e[5mC]*eA*dG*d[5mC]*dT*dT*dG*d[5mC]*dA*dA*dG*dG*eG*e[5mC]*e[5mC]*eG*e[5mC]) [ISIS 447127]	%	62
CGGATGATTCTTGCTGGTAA (antisense e[5mC]*eG*eG*eA*eT*dG*dA*dT*dT*d[5mC]*dT*dT*dG*d[5mC]*dT*eG*eG*eT*eA*eA) [ISIS 447114]	%	70
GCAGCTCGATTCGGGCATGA (antisense eG*e[5mC]*eA*eG*e[5mC]*dT*d[5mC]*dG*dA*dT*dT*d[5mC]*dG*dG*dG*e[5mC]*eA*eT*eG*eA) [ISIS 447118]	%	65
GAGTCCACCTTTGATGAAGT (antisense eG*eA*eG*eT*e[5mC]*d[5mC]*dA*d[5mC]*d[5mC]*dT*dT*dT*dG*dA*dT*eG*eA*eA*eG*eT) [ISIS 447110]	%	52
TGAATGCTATTATTGGATCT (antisense eT*eG*eA*eA*eT*dG*d[5mC]*dT*dA*dT*dT*dA*dT*dT*dG*eG*eA*eT*e[5mC]*eT) [ISIS 447140]	%	55
GGCACTCTTTATATATTTGG (antisense eG*eG*e[5mC]*eA*e[5mC]*dT*d[5mC]*dT*dT*dT*dA*dT*dA*dT*dA*eT*eT*eT*eG*eG) [ISIS 447111]	%	60
GTTGCCTTGGACCATTTACT (antisense eG*eT*eT*eG*e[5mC]*d[5mC]*dT*dT*dG*dG*dA*d[5mC]*d[5mC]*dA*dT*eT*eT*eA*e[5mC]*eT) [ISIS 447122]	%	61
TCGAAATGTTTCTTGAGCCT (antisense eT*e[5mC]*eG*eA*eA*dA*dT*dG*dT*dT*dT*d[5mC]*dT*dT*dG*eA*eG*e[5mC]*e[5mC]*eT) [ISIS 447119]	%	52
GGACTGCCTGCCATGGGTGC (antisense eG*eG*eA*e[5mC]*eT*dG*d[5mC]*d[5mC]*dT*dG*d[5mC]*d[5mC]*dA*dT*dG*eG*eG*eT*eG*e[5mC]) [ISIS 447146]	%	55
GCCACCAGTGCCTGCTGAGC (antisense eG*e[5mC]*e[5mC]*eA*e[5mC]*d[5mC]*dA*dG*dT*dG*d[5mC]*d[5mC]*dT*dG*d[5mC]*eT*eG*eA*eG*e[5mC]) [ISIS 447143]	%	71
GGAGGTCCCCTGGCCACGGC (antisense eG*eG*eA*eG*eG*dT*d[5mC]*d[5mC]*d[5mC]*d[5mC]*dT*dG*dG*d[5mC]*d[5mC]*eA*e[5mC]*eG*eG*e[5mC]) [ISIS 447151]	%	56
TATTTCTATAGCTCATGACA (antisense eT*eA*eT*eT*eT*d[5mC]*dT*dA*dT*dA*dG*d[5mC]*dT*d[5mC]*dA*eT*eG*eA*e[5mC]*eA) [ISIS 447144]	%	69
GGTGGAGTCTGGCCCTCAGC (antisense eG*eG*eT*eG*eG*dA*dG*dT*d[5mC]*dT*dG*dG*d[5mC]*d[5mC]*d[5mC]*eT*e[5mC]*eA*eG*e[5mC]) [ISIS 447142]	%	64
AATGCCACCACCTTCAACCA (antisense eA*eA*eT*eG*e[5mC]*d[5mC]*dA*d[5mC]*d[5mC]*dA*d[5mC]*d[5mC]*dT*dT*d[5mC]*eA*eA*e[5mC]*e[5mC]*eA) [ISIS 447138]	%	49
TGTCAGTGACAGTGGCAGCT (antisense eT*eG*eT*e[5mC]*eA*dG*dT*dG*dA*d[5mC]*dA*dG*dT*dG*dG*e[5mC]*eA*eG*e[5mC]*eT) [ISIS 447159]	%	60
GAGATCAGTTTCTGATGAAA (antisense eG*eA*eG*eA*eT*d[5mC]*dA*dG*dT*dT*dT*d[5mC]*dT*dG*dA*eT*eG*eA*eA*eA) [ISIS 447169]	%	43
ATGCCATTCTGGATGTCCTG (antisense eA*eT*eG*e[5mC]*e[5mC]*dA*dT*dT*d[5mC]*dT*dG*dG*dA*dT*dG*eT*e[5mC]*e[5mC]*eT*eG) [ISIS 447106]	%	55
GCCAATCTAAAAATGGCTCA (antisense eG*e[5mC]*e[5mC]*eA*eA*dT*d[5mC]*dT*dA*dA*dA*dA*dA*dT*dG*eG*e[5mC]*eT*e[5mC]*eA) [ISIS 447135]	%	52
